Give measured GRmax, 72 h for each item. Keep answers brief.
# System: CAL120
# assay-protocol: GRmax, 72 h; higher = less effect;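 note: breast cell lines in 384-well plates, nine doses across a 10^4 range, Dye Drop imaging of viable cells vs DMSO and time-zero plates, GR 0 means no net growth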
Give bare numbers, in GR.

List GRmax, 72 h for every entry below, keeping the order given.
1. NC(=O)Nc1cc(-c2cccc(F)c2)sc1C(=O)N[C@H]1CCCNC1 [AZD7762] (max 10 µM)
2. CO[C@@H](C)Cn1c(=O)n(C)c2cnc3ccc(-c4cncc(C(C)(C)O)c4)cc3c21 (max 10 µM)
3. CS(=O)(=O)N1CCN(Cc2cc3nc(-c4cccc5[nH]ncc45)nc(N4CCOCC4)c3s2)CC1 [Pictilisib/GDC0941] (max 10 µM)
4. CC[C@@H]1C(=O)N(C)c2cnc(Nc3ccc(C(=O)N[C@H]4CC[C@H](N5CCN(CC6CC6)CC5)CC4)cc3OC)nc2N1C(C)C [Volasertib/BI6727] (max 1 µM)

Ans.
1. -0.495
2. 0.0419
3. 0.194
4. 0.0258

Give measured GRmax, 72 h for every item shown.
1. CC(C)Nc1cc(-c2c[nH]c(C(=O)N[C@H](CO)c3cccc(Cl)c3)c2)c(Cl)cn1 [BVD523] (max 10 µM)
2. Nc1ccc(-c2ccc3ncc4ccc(=O)n(-c5cccc(C(F)(F)F)c5)c4c3c2)cn1 [Torin2] (max 1 µM)
3. COc1cc([C@@H]2c3cc4c(cc3[C@@H](O[C@@H]3O[C@@H]5CO[C@@H](C)O[C@H]5[C@H](O)[C@H]3O)[C@H]3COC(=O)[C@H]23)OCO4)cc(OC)c1O [Etoposide] (max 10 µM)

Ans.
1. 0.482
2. -0.0115
3. -0.166

Value sought for every listed molecule: GRmax, 72 h.
1. CCN1CCN(Cc2ccc(Nc3ncc(F)c(-c4cc(F)c5nc(C)n(C(C)C)c5c4)n3)nc2)CC1 (max 10 µM)
2. CCOc1cc2ncc(C#N)c(Nc3ccc(OCc4ccccn4)c(Cl)c3)c2cc1NC(=O)/C=C/CN(C)C [Neratinib/HKI272] (max 3.162 µM)
3. CCCCOc1c(C(=O)c2c(F)cc(C)cc2F)c[nH]c2nncc1-2 (max 10 µM)

Ans.
-0.141
-0.261
0.369

Parameters: items (list). Returns: GRmax, 72 h for each item.
1. CCC(=O)Nc1ccc(C(=O)Nc2ccc(Nc3ncc4c(n3)N(C)c3ccc(C)cc3C(=O)N4C)cc2)cc1 [FMF-03-145-1]
2. Cc1nn(C)c(COc2ccc(N3CCN(S(=O)(=O)N(C)C)CC3)cc2)c1-c1cccc2c(CCCOc3cccc4ccccc34)c(C(=O)O)n(CCN3CCOCC3)c12 (max 10 µM)
3. COc1cccc(OCCCN)c1-c1cc(Nc2cnc(C#N)cn2)n[nH]1
4. COc1cccc2c1C(=O)c1c(O)c3c(c(O)c1C2=O)C[C@@](O)(C(=O)CO)C[C@@H]3O[C@H]1C[C@H](N)[C@H](O)[C@H](C)O1 [Doxorubicin] (max 3.162 µM)

Ans.
1: 0.191; 2: 0.943; 3: 0.317; 4: -0.247
